experimental_target: CYP2C9 (Homo sapiens, UniProt P11712)
Sequence (P11712 whole entry): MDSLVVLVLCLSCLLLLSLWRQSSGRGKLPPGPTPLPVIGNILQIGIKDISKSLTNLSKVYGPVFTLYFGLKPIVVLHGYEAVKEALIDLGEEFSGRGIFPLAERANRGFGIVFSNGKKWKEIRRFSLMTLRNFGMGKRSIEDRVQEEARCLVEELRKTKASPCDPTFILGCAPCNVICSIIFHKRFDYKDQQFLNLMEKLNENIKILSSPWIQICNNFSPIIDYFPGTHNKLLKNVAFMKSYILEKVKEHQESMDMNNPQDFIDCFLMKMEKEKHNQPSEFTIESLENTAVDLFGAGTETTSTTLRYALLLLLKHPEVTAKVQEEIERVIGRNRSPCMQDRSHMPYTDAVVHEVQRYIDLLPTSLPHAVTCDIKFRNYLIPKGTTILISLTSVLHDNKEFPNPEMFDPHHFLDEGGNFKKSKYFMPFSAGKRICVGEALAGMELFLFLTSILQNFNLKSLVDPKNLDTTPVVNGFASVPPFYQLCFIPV
assay_summary: Inhibitory activity of 200 uM SPP100 on 222 Pmoles of cDNA-derived CYP2C9 enzyme in microsome prepared from human lymphoblastoid cell line
Type: ADME, microsomes
Set-up: conc 200 uM, interact cpd conc 6 uM
stated_conditions: probe diclofenac
measure: inhibition at 200 µM (%)
Give your result in % as a bare value.

Need inhibition at 200 µM of `COCCCOc1cc(C[C@@H](C[C@H](N)[C@@H](O)C[C@H](C(=O)NCC(C)(C)C(N)=O)C(C)C)C(C)C)ccc1OC` , thanks.
14.9

====

experimental_target: CYP1A2 (Homo sapiens)
Sequence (P05177 whole entry): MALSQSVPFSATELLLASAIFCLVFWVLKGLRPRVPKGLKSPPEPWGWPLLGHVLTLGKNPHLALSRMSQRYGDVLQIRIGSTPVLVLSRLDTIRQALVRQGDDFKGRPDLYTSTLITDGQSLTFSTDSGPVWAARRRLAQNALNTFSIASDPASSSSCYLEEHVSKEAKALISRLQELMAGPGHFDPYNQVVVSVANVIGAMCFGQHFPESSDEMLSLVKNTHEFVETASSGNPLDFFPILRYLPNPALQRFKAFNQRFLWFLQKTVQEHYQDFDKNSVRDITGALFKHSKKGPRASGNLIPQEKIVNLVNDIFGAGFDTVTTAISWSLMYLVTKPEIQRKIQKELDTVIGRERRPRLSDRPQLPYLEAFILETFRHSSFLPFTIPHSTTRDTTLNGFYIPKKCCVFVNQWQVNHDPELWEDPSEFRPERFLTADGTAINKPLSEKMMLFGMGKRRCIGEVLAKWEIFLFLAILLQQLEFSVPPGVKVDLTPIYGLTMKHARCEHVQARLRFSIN
assay_summary: Inhibitory activity of 200 uM SPP100 on 484 Pmoles of cDNA-derived CYP1A2 enzyme in microsome prepared from human lymphoblastoid cell line
Format: ADME, microsomes
Design: conc 200 uM, interact cpd conc 50 uM
stated_conditions: probe phenacetin
measure: inhibition at 200 µM
Could you kindly put the unit after your number?

Query inhibition at 200 µM on CYP1A2 (Homo sapiens) for `COCCCOc1cc(C[C@@H](C[C@H](N)[C@@H](O)C[C@H](C(=O)NCC(C)(C)C(N)=O)C(C)C)C(C)C)ccc1OC`
6%
